The origin of these recorded values is patent US10428017B2.

# measured-on: F508delCFTR (Homo sapiens, UniProt P13569, DEL508-508)
# Construct: expressed in transfected cells; host or cells: CFBE4lo-F508delCFTR-HRP cells (human lung derived epithelial cell line, doxycycline-inducible)
# Sequence (P13569 with tags, fused parts or gaps DEL508-508): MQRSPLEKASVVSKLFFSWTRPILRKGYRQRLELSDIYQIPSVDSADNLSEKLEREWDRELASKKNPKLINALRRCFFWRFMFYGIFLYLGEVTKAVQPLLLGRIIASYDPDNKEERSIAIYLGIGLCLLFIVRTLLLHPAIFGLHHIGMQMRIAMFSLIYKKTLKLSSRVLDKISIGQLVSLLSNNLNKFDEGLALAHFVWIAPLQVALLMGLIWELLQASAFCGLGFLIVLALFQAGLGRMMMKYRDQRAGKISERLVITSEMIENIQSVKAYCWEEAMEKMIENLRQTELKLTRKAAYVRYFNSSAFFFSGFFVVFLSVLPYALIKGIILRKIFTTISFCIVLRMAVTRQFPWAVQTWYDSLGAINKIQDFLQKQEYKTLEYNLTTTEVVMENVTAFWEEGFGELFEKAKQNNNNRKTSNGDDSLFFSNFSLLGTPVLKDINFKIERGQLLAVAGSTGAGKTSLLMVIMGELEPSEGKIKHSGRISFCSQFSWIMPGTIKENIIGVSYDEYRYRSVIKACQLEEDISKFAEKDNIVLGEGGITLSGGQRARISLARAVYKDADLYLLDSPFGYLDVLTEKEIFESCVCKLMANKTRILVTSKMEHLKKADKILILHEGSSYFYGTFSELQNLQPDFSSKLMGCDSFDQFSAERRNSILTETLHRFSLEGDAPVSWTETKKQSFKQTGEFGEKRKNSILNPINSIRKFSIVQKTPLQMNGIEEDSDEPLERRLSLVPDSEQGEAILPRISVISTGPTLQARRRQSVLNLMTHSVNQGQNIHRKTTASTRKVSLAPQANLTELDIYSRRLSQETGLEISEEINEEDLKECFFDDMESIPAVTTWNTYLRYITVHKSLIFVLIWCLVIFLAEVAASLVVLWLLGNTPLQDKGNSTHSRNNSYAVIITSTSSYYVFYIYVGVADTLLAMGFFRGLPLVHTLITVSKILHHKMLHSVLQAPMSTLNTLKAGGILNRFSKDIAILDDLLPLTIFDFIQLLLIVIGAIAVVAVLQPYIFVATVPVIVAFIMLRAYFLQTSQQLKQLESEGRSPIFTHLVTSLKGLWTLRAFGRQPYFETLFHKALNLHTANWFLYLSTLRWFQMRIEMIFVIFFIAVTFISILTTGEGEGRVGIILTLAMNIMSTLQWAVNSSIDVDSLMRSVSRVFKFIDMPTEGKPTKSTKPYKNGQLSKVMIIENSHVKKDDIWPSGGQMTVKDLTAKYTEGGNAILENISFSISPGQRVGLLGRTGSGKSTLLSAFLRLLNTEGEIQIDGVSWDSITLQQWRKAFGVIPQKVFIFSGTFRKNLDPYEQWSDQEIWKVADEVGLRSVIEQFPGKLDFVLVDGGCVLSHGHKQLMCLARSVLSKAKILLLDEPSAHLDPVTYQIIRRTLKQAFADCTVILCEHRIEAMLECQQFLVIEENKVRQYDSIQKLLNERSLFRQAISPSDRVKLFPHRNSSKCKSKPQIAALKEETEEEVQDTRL
# test-details: Cell Surface Expression-Horse Radish Peroxidase (CSE-HRP) Assay
# Format: cell-based
# applied-conditions: test compound without co-corrector; CFBE4lo-F508delCFTR-HRP cells, 18-24 hours at 33° C., HRP luminescence readout; read-out: EC50 (without co-corrector)
pEC50: −log10 of the molar value.
pEC50 overview

Here's what some known entries look like.
molecule: COc1ccc(C2CCC2)c2c1C(C(=O)NS(=O)(=O)c1cccc3ncccc13)OCC2 (centres unmarked) [Example 81]
pEC50: 5.00 to 5.52
//
molecule: COc1ccc(C2CCC2)c2c1C(C(=O)NS(=O)(=O)c1cccc3ccccc13)CCO2 (centres unmarked) [Example 13]
pEC50: > 5.52
//
molecule: COc1ccc(OC)c2c1OCC2C(=O)NS(=O)(=O)c1cccc2ccccc12 (centres unmarked) [Example 62]
pEC50: 5.00 to 5.52
//
molecule: C[C@]1(C(=O)NS(=O)(=O)c2cccc3ccccc23)COc2cc3c(cc21)OC(F)(F)O3 [Example 33]
pEC50: ≤ 5.00

input: I have this molecule here, Cc1cc2c(c(C)c1C(=O)c1ccccc1)C(C(=O)NS(=O)(=O)c1cccc3ccccc13)CCO2 (centres unmarked) [Example 5] , and I need its recorded pEC50.
output: > 5.52

* * *

# measured-on: F508delCFTR (Homo sapiens, UniProt P13569, DEL508-508)
# Construct: expressed in transfected cells; host or cells: CFBE4lo-F508delCFTR-HRP cells (human lung derived epithelial cell line, doxycycline-inducible)
# test-details: Cell Surface Expression-Horse Radish Peroxidase (CSE-HRP) Assay
# Format: cell-based
# applied-conditions: with co-corrector 2 μM; maximum at any tested concentration (up to 20 μM), normalized to on-plate positive control (2 μM co-corrector)
value-type: Maximum % activity (with co-corrector)

Here's what some known entries look like.
molecule: COc1ccc(Br)c2c1C(C(=O)NS(=O)(=O)c1cccc3ncccc13)CC(C)(C)O2 (stereo not shown)
result-value: +++ (≥350)

molecule: Cc1ccccc1S(=O)(=O)NC(=O)C1Cc2ccccc2O1 (stereo not shown)
result-value: + (<150)

molecule: COc1ccc(C2CCC2)c2c1C(C(=O)NS(=O)(=O)c1cccc3c1CCCN3)CC(C)(C)O2 (stereo not shown)
result-value: +++ (≥350)

molecule: COc1ccc(Br)c2c1[C@@H](C(=O)NS(=O)(=O)c1cccc3cnn(C)c13)CCO2
result-value: ++ (≥150 and <350)

molecule: COc1ccc2c(c1)C(C(=O)NS(=O)(=O)c1cccc3ccccc13)(c1ccccc1)CCO2 (stereo not shown)
result-value: +++ (≥350)

input: I have this molecule here, COc1ccc(Cl)c2c1C(C(=O)NS(=O)(=O)c1cccc3ccccc13)CO2 (stereo not shown) , and I need its recorded Maximum % activity (with co-corrector).
output: +++ (≥350)

input: Now consider COc1ccc(C2CCC2)c2c1[C@H](C(=O)NS(=O)(=O)c1cccc3[nH]ccc13)CCO2 and answer again.
output: +++ (≥350)

input: Now consider O=C(NS(=O)(=O)c1cccc2ccccc12)C1CCOc2ccccc21 (stereo not shown) and answer again.
output: +++ (≥350)

input: Now consider O=C(NS(=O)(=O)c1cccc2ccccc12)C1CCOc2c(Cl)cccc21 (stereo not shown) and answer again.
output: +++ (≥350)

input: Now consider COc1ccc(C2CCC2)c2c1[C@@H](C(=O)NS(=O)(=O)c1cccc3c1CCCN3)CO2 and answer again.
output: +++ (≥350)

input: Now consider COc1ccc2c(c1)C(C(=O)NS(=O)(=O)c1cccc3ccccc13)(c1ccccc1)CC(C)(C)O2 (stereo not shown) and answer again.
output: +++ (≥350)

* * *

# measured-on: F508delCFTR (Homo sapiens, UniProt P13569, DEL508-508)
# Construct: expressed in transfected cells; host or cells: CFBE4lo-F508delCFTR-HRP cells (human lung derived epithelial cell line, doxycycline-inducible)
# test-details: Cell Surface Expression-Horse Radish Peroxidase (CSE-HRP) Assay
# Assay type: cell-based
# applied-conditions: test compound without co-corrector; CFBE4lo-F508delCFTR-HRP cells, 18-24 hours at 33° C., HRP luminescence readout; read-out: EC50 (without co-corrector)
pEC50: −log10 of the molar value.
value-type: pEC50

Here's what some known entries look like.
compound: CCCS(=O)(=O)NC(=O)C1COc2ccc(Cl)cc21 (stereo not shown)
result-value: ≤ 5.00
--
compound: COc1ccc(Cl)c2c1[C@@H](C(=O)NS(=O)(=O)c1cccc3ccccc13)CO2 (single isomer, unassigned)
result-value: 5.00 to 5.52
--
compound: COc1ccc2c(c1)C(C(=O)NS(=O)(=O)c1cccc3ccccc13)(c1ccccc1)CCO2 (stereo not shown)
result-value: > 5.52
--
compound: CCC1(C(=O)NS(=O)(=O)c2cccc3ccccc23)COc2c(Cl)cccc21 (stereo not shown)
result-value: 5.00 to 5.52
--
compound: COc1ccc(C2CCC2)c2c1[C@@H](C(=O)NS(=O)(=O)c1cccc3[nH]ccc13)CCO2
result-value: 5.00 to 5.52

input: I have this compound here, COc1ccc(C2CCC2)c2c1[C@@H](C(=O)NS(=O)(=O)c1cccc3ncccc13)CO2 (single isomer, unassigned) , and I need its recorded pEC50.
output: 5.00 to 5.52

input: Now consider COc1ccc(C2CCC2)c2c1C(C(=O)NS(=O)(=O)c1cccc3nc(C)ccc13)CCO2 (racemic) and answer again.
output: 5.00 to 5.52

input: Now consider COc1ccc(C#N)c2c1C(C(=O)NS(=O)(=O)c1cccc3ccccc13)CC(C)(C)O2 (stereo not shown) and answer again.
output: 5.00 to 5.52

input: Now consider COc1ccc(C(F)(F)F)c2c1[C@@H](C(=O)NS(=O)(=O)c1cccc3ccccc13)CCO2 and answer again.
output: 5.00 to 5.52

input: Now consider COc1ccc(C2CCCC2)c2c1C(C(=O)NS(=O)(=O)c1cccc3ccccc13)CCO2 (stereo not shown) and answer again.
output: > 5.52

input: Now consider O=C(NS(=O)(=O)c1cccc2ccccc12)C1CCOc2ccccc21 (stereo not shown) and answer again.
output: 5.00 to 5.52

input: Now consider COc1ccc(C2CCC2)c2c1[C@@H](C(=O)NS(=O)(=O)c1cccc3c1CCCN3)CC(C)(C)O2 and answer again.
output: > 5.52

input: Now consider COc1ccc(Cl)c2c1[C@H](C(=O)NS(=O)(=O)c1cccc3ccccc13)CO2 (single isomer, unassigned) and answer again.
output: 5.00 to 5.52

input: Now consider COc1ccc(Br)c2c1[C@@H](C(=O)NS(=O)(=O)c1cccc3ccccc13)CCO2 and answer again.
output: 5.00 to 5.52

input: Now consider COc1ccc(C2CCC2)c2c1[C@@H](C(=O)NS(=O)(=O)c1cccc3ccccc13)CO2 and answer again.
output: > 5.52

input: Now consider COc1ccc(Br)c2c1C(C(=O)NS(=O)(=O)c1cccc3ccccc13)OCC2 (stereo not shown) and answer again.
output: > 5.52

input: Now consider O=C(NS(=O)(=O)c1cccc2ccccc12)C1(c2ccccc2)CCOc2ccc(Br)cc21 (stereo not shown) and answer again.
output: > 5.52

input: Now consider COc1ccc(C2CCC2)c2c1[C@H](C(=O)NS(=O)(=O)c1cccc3ncccc13)CO2 (single isomer, unassigned) and answer again.
output: > 5.52

input: Now consider COc1ccc(C2CCC2)c2c1C(C(=O)NS(=O)(=O)c1cccc3ncccc13)CO2 (stereo not shown) and answer again.
output: > 5.52

input: Now consider COc1ccc(Br)c2c1[C@@H](C(=O)NS(=O)(=O)c1cccc3ncccc13)CC(C)(C)O2 and answer again.
output: 5.00 to 5.52

* * *

Emax overview
# measured-on: F508delCFTR (Homo sapiens, UniProt P13569, DEL508-508)
# Construct: expressed in transfected cells; host or cells: CFBE4lo-F508delCFTR-HRP cells (human lung derived epithelial cell line, doxycycline-inducible)
# test-details: Cell Surface Expression-Horse Radish Peroxidase (CSE-HRP) Assay
# Format: cell-based
# applied-conditions: test compound without co-corrector; maximum at any tested concentration (up to 20 μM), normalized to on-plate positive control (2 μM co-corrector)

compound: COc1ccc(C2CCC2)c2c1[C@@H](C(=O)NS(=O)(=O)c1cccc3c1CCCN3)CCO2 [Example 91]
Emax: ≥ 150%

input: I have this compound here, COc1cccc2c1C(C(=O)NS(=O)(=O)c1cccc3ncccc13)CC(C)(C)O2 (stereo not drawn) [Example 48] , and I need its recorded Emax.
output: ≥ 150%

input: Now consider Cc1cc2c(c(C)c1C(=O)c1ccccc1)C(C(=O)NS(=O)(=O)c1cccc3ccccc13)CCO2 (stereo not drawn) [Example 5] and answer again.
output: ≥ 150%

input: Now consider COc1ccc(Cl)c2c1[C@@H](C(=O)NS(=O)(=O)c1cccc3ccccc13)CO2 (single isomer, unassigned) [Example 67] and answer again.
output: ≥ 150%

input: Now consider COc1ccc(Br)c2c1C(C(=O)NS(=O)(=O)c1cccc3ccccc13)OCC2 (stereo not drawn) [Example 78] and answer again.
output: ≥ 150%

input: Now consider CCC1(C(=O)NS(=O)(=O)c2cccc3ccccc23)COc2c(Br)cccc21 (stereo not drawn) [Example 22] and answer again.
output: ≥ 150%
